target: Class A carbapenemase KPC-2 (Escherichia coli) (UniProt A8DS27); conditions: 11119

STRUCTURE_STRING | MEASURED_ON | MIC, µg/mL
C[C@H](CS)C(=O)NCB(O)O | Class A carbapenemase KPC-2 (Escherichia coli) (UniProt A8DS27) | 4
C[C@H](CS)C(=O)N[C@H](Cc1coc2ccccc12)B(O)O | Class A carbapenemase KPC-2 (Escherichia coli) (UniProt A8DS27) | 8
C[C@H](CS)C(=O)N[C@@H](Cc1coc2ccccc12)B(O)O | Class A carbapenemase KPC-2 (Escherichia coli) (UniProt A8DS27) | 8
C[C@H](CS)C(=O)N[C@H](Cc1ccccc1)B(O)O | Class A carbapenemase KPC-2 (Escherichia coli) (UniProt A8DS27) | 16
C[C@]1(Cn2ccnn2)[C@H](C(=O)O)N2C(=O)C[C@H]2S1(=O)=O | Class A carbapenemase KPC-2 (Escherichia coli) (UniProt A8DS27) | 8
C[C@H](CS)C(=O)N[C@@H](Cc1ccccc1)B(O)O | Class A carbapenemase KPC-2 (Escherichia coli) (UniProt A8DS27) | 16
